- SYSTEM_UNDER_TEST: Bromodomain-containing protein 4 (Homo sapiens)
- ASSAY_METHOD_TEXT: Selectivity interaction (ITC) EUB0000205c BRD4
READOUT: pKd
Hey, just a heads up that pKd is the negative log base 10 of the concentration in molar.

What value of pKd has been recorded for this entry: COc1cc(C#N)ccc1S(=O)(=O)Nc1ccc2c(c1)cc(C)c(=O)n2C 5.41

---

- SYSTEM_UNDER_TEST: Chromatin remodeling regulator CECR2 (Homo sapiens, UniProt Q9BXF3)
- ASSAY_METHOD_TEXT: Selectivity interaction (ITC) EUB0000191c CECR2
READOUT: pKd
Hey, just a heads up that pKd is the negative log base 10 of the concentration in molar.

What value of pKd has been recorded for this entry: Cc1cc2c(cc1N1C(=O)c3cccc4c(CCCO)ccc(c34)C1=O)n(C)c(=O)n2C 5.86

---

- SYSTEM_UNDER_TEST: Casein kinase II subunit alpha (Homo sapiens, UniProt P68400)
- Sequence (P68400 whole entry): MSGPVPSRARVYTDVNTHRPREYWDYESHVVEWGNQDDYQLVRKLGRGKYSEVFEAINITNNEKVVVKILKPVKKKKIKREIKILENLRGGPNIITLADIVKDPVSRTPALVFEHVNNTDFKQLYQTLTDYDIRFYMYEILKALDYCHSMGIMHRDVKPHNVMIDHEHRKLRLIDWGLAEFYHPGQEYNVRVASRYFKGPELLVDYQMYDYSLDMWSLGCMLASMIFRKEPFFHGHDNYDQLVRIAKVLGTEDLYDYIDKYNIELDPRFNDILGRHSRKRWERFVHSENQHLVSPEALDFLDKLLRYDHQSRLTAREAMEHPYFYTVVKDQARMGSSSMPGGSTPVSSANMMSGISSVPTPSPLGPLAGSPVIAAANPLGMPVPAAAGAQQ
- ASSAY_METHOD_TEXT: Selectivity interaction (Kinase panel (radiometric kinase assay)) EUB0000677a CSNK2A1
READOUT: IC50 (nM)
API: value field is a number in nM; no unit string.

What value of IC50 has been recorded for this entry: CN1CCN(c2ccc(OC(F)(F)F)c(Nc3ncc4c(n3)-c3c(c(C(N)=O)nn3CCO)CC4)c2)CC1 [ONVANSERTIB] 826

---

- SYSTEM_UNDER_TEST: Prostaglandin E2 receptor EP4 subtype (Homo sapiens)
- ASSAY_METHOD_TEXT: Selectivity interaction (Eurofins-Panlabs radioligand binding assay ) EUB0000307b PTGER4
READOUT: pIC50
Hey, just a heads up that pIC50 is the negative log base 10 of the concentration in molar.

What value of pIC50 has been recorded for this entry: Cc1c(NC(=O)c2cc(C(N)=O)nc3cc(F)ccc23)c(C(F)(F)F)nn1Cc1ccc(C#N)cc1 [BAY-876] 5.95

---

- SYSTEM_UNDER_TEST: D(1B) dopamine receptor (Homo sapiens)
- ASSAY_METHOD_TEXT: Selectivity interaction (GPCR panel (PDSP screen)) EUB0000727a DRD5
READOUT: Ki

Give the reported Ki for Cn1nc(C(=O)NCc2ccc(C(=O)O)cc2)cc1-c1ccc2[nH]ccc2c1 (system: D(1B) dopamine receptor (Homo sapiens)). > 10 µM

---

- SYSTEM_UNDER_TEST: G protein-coupled receptor kinase 3 (Homo sapiens)
- Sequence (P35626 whole entry): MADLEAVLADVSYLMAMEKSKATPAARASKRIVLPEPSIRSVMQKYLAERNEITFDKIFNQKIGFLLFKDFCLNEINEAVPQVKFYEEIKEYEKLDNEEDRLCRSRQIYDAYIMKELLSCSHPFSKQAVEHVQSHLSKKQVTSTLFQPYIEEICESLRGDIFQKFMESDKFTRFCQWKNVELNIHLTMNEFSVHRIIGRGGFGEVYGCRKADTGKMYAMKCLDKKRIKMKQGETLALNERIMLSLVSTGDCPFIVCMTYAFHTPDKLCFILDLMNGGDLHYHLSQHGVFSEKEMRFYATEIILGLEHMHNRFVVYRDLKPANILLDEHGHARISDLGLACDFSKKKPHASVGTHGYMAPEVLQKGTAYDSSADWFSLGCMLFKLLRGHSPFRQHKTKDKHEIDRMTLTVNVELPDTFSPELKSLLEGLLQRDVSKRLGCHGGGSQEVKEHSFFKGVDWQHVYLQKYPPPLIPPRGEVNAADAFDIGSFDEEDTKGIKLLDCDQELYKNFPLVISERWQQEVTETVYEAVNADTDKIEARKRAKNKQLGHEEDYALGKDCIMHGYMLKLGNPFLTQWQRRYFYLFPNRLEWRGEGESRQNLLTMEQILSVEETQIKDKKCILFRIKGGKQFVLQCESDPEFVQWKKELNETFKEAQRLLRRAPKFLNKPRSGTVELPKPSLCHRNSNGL
- ASSAY_METHOD_TEXT: Selectivity interaction (KinomeScan (DiscoverX, competition-binding assay)) EUB0001135a ADRBK2
READOUT: Kd

What value of Kd has been recorded for this entry: O=C1NC(c2ccccn2)Sc2ccccc21 (stereo unspecified) > 10 µM

---

- SYSTEM_UNDER_TEST: UniProt P07947
- Sequence (P07947 whole entry): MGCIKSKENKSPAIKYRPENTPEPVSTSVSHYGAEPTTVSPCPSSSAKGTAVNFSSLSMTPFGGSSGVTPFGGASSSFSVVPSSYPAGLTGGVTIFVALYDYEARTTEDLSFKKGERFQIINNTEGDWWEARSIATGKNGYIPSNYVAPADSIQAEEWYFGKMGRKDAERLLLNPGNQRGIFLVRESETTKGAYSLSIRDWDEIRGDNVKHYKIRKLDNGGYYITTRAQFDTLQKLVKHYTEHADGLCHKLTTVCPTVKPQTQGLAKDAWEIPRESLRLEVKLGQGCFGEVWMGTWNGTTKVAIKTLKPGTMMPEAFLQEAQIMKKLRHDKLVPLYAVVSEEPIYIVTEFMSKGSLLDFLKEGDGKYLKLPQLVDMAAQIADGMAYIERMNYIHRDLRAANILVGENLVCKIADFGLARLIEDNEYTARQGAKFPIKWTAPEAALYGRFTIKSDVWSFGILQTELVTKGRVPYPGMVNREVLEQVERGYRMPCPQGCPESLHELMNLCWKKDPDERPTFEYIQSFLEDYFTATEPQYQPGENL
- ASSAY_METHOD_TEXT: Selectivity interaction (Z’-LYTE assay) EUB0000638a YES1
pIC50: −log10 of the molar value.
READOUT: pIC50

What value of pIC50 has been recorded for this entry: CC#CC(=O)N1CCC[C@H]1c1nc(-c2ccc(C(=O)Nc3ccccn3)cc2)c2c(N)nccn12 < 5.00

---

- SYSTEM_UNDER_TEST: Vascular endothelial growth factor receptor 2 (Homo sapiens, UniProt P35968)
- Sequence (P35968 whole entry): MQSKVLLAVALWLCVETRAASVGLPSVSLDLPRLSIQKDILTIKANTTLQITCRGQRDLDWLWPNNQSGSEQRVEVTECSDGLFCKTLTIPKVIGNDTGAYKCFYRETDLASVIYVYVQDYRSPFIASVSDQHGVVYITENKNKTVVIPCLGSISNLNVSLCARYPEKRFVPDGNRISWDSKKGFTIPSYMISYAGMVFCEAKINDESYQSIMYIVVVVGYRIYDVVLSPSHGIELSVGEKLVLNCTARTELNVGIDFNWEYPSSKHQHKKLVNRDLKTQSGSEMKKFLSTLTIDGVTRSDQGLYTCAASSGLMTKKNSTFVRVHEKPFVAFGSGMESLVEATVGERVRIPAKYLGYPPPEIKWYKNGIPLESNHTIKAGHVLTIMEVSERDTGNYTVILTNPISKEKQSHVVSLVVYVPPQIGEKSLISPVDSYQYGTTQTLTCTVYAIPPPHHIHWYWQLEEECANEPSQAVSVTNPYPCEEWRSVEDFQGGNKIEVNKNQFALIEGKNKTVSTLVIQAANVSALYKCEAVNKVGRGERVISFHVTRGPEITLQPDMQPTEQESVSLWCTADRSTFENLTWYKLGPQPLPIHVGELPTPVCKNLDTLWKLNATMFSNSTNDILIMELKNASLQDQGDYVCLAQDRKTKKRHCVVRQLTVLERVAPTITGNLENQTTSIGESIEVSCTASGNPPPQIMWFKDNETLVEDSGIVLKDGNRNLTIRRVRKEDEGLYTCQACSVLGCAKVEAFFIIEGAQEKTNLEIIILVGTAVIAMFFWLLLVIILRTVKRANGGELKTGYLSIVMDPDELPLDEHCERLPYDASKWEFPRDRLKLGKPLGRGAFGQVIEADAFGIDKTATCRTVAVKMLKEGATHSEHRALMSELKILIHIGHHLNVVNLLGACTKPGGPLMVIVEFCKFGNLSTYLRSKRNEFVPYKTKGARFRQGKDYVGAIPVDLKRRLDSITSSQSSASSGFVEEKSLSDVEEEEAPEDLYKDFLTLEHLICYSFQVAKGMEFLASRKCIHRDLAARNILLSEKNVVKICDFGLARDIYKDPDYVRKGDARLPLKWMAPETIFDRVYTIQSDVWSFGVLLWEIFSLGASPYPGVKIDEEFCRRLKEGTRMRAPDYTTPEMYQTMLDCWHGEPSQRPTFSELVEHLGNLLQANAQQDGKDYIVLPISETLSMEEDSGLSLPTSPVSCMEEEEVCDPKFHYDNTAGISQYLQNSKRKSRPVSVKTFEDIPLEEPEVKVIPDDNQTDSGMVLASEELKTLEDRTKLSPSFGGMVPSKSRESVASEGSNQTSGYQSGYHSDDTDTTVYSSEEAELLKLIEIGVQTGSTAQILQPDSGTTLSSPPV
- ASSAY_METHOD_TEXT: Selectivity interaction (Kinase panel (enzymatic assay)) EUB0000153b KDR
pIC50: −log10 of the molar value.
READOUT: pIC50

What value of pIC50 has been recorded for this entry: CNc1nc(-c2ccc3c(N)n[nH]c3c2)cc(N2C[C@@H](C(=O)NC3CCCCC3)CC[C@H]2C)n1 < 5.00

---

- SYSTEM_UNDER_TEST: cGMP-inhibited 3',5'-cyclic phosphodiesterase 3A (Homo sapiens, UniProt Q14432)
- Sequence (Q14432 whole entry): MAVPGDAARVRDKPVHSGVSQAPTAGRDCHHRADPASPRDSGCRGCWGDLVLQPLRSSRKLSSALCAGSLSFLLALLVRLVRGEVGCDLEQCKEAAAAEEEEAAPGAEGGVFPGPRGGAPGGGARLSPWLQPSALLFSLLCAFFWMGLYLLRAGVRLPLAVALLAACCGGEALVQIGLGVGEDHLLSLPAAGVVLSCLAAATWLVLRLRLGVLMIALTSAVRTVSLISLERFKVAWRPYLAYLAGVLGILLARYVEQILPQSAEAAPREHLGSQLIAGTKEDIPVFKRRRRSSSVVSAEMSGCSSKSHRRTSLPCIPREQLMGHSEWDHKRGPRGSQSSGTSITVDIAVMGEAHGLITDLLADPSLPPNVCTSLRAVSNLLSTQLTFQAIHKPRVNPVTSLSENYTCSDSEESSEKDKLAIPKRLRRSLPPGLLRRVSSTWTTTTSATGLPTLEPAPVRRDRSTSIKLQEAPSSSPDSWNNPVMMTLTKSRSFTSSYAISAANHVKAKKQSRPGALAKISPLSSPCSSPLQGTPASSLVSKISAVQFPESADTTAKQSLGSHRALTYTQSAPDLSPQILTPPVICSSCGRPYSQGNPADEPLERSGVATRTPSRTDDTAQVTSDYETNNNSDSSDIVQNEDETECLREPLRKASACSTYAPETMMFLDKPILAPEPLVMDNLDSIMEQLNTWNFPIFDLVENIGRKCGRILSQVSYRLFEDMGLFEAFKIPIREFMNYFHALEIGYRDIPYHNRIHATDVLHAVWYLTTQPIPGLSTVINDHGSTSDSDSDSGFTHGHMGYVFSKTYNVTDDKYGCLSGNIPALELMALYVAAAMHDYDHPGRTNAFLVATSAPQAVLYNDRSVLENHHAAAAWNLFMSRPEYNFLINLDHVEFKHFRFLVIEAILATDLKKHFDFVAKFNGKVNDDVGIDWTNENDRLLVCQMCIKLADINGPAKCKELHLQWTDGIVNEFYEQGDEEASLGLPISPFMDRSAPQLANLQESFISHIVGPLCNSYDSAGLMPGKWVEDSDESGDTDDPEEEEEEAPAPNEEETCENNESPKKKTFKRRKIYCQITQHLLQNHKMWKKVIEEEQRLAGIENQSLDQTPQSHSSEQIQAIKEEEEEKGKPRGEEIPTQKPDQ
- ASSAY_METHOD_TEXT: Selectivity interaction (PDE panel (enzymatic activity assay)) EUB0000751a PDE3A
pKi: −log10 of the molar value.
READOUT: pKi

What value of pKi has been recorded for this entry: COCCOc1nc(-c2ccc(Cl)nc2)nc2c1CN(C(=O)c1ncn3ccccc13)CC2 < 2.48

---

- SYSTEM_UNDER_TEST: Histamine H1 receptor (Homo sapiens)
- Sequence (P35367 whole entry): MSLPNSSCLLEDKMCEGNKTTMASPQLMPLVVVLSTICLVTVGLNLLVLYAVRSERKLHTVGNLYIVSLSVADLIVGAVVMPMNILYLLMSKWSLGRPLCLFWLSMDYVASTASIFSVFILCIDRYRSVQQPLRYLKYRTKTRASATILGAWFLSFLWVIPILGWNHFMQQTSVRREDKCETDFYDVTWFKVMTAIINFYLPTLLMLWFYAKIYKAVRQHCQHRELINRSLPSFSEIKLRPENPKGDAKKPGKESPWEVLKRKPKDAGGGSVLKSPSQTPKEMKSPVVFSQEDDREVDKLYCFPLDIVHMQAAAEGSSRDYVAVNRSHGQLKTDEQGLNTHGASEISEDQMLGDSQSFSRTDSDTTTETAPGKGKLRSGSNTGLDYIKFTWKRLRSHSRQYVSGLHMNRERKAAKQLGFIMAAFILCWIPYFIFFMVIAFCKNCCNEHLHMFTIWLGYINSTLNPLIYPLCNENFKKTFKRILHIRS
- ASSAY_METHOD_TEXT: Selectivity interaction (GPCR panel (PDSP screen)) EUB0000289c HRH1
READOUT: Ki

What value of Ki has been recorded for this entry: Cn1cncc1[C@](O)(COc1ccc(C#N)cc1-c1ccc(OC(F)(F)F)cc1)c1ccc(C#N)cc1 > 10 µM

---

- SYSTEM_UNDER_TEST: Gamma-aminobutyric acid receptor subunit alpha-1 (Homo sapiens, UniProt P14867)
- Sequence (P14867 whole entry): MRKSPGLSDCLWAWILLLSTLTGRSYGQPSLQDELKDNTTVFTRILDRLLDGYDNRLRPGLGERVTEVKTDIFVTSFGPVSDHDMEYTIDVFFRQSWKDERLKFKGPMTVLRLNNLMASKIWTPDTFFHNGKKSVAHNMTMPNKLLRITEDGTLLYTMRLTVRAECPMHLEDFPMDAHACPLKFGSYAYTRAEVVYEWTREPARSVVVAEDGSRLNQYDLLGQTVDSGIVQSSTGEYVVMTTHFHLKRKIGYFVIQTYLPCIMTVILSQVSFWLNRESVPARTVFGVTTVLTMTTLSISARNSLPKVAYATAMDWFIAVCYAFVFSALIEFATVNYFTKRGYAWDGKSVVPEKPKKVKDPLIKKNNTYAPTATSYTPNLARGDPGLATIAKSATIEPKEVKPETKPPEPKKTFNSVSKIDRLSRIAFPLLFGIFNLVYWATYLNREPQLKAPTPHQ
- ASSAY_METHOD_TEXT: Selectivity interaction (GPCR panel (PDSP screen)) EUB0000713a GABRA1
READOUT: pKi
Hey, just a heads up that pKi is the negative log base 10 of the concentration in molar.

What value of pKi has been recorded for this entry: Cc1cc(C)c(-n2ccn3nc(-c4cccnc4)cc23)cc1NC(=O)c1cc(C#N)cc(S(F)(F)(F)(F)F)c1 6.66

---

- SYSTEM_UNDER_TEST: Epidermal growth factor receptor (Homo sapiens, UniProt P00533, L858R)
- ASSAY_METHOD_TEXT: Selectivity interaction (Z’-LYTE assay (SelectScreen Invitrogen)) EUB0000690a EGFR
READOUT: pKi
Hey, just a heads up that pKi is the negative log base 10 of the concentration in molar.

What value of pKi has been recorded for this entry: C[C@H]1Oc2cc(cnc2N)-c2c(nn(C)c2C#N)CN(C)C(=O)c2ccc(F)cc21 7.25

---

- SYSTEM_UNDER_TEST: Mitogen-activated protein kinase 14 (Homo sapiens, UniProt Q16539)
- Sequence (Q16539 whole entry): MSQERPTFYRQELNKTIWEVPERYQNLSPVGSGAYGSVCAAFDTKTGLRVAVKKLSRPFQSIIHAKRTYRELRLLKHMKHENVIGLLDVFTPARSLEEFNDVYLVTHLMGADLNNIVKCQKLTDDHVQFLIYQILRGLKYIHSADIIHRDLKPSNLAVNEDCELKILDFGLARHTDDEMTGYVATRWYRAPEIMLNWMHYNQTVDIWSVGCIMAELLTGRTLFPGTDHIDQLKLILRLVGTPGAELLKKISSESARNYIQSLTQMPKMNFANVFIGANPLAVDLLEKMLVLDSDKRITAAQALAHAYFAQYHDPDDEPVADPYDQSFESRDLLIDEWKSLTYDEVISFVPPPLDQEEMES
- ASSAY_METHOD_TEXT: Selectivity interaction (MSD Pharma/Taiwan screen (enzymes and receptors) ) EUB0000296b MAPK14
READOUT: IC50 (µM)
API: value field is a number in µM; no unit string.

What value of IC50 has been recorded for this entry: CC(=O)Nc1c(C(C)=O)c(=O)n(C)c2nc(-c3ccc(Cl)cc3Cl)c(-c3ccc(Cl)cc3)cc12 [NAPHTHYRIDINONE] 3.68

---

- SYSTEM_UNDER_TEST: Transcription initiation factor TFIID subunit 1 (Homo sapiens, UniProt P21675)
- ASSAY_METHOD_TEXT: Selectivity interaction (BRD panel (HTRF assay)) EUB0000007b TAF1
READOUT: IC50 (nM)
API: value field is a number in nM; no unit string.

What value of IC50 has been recorded for this entry: CN(C)C(=O)/C(C#N)=C/c1ccc(-c2nc3cnc4c(ccn4C)c3n2C2CCCCC2)o1 170

---

- SYSTEM_UNDER_TEST: Gamma-aminobutyric acid receptor subunit alpha-1 (Homo sapiens, UniProt P14867)
- Sequence (P14867 whole entry): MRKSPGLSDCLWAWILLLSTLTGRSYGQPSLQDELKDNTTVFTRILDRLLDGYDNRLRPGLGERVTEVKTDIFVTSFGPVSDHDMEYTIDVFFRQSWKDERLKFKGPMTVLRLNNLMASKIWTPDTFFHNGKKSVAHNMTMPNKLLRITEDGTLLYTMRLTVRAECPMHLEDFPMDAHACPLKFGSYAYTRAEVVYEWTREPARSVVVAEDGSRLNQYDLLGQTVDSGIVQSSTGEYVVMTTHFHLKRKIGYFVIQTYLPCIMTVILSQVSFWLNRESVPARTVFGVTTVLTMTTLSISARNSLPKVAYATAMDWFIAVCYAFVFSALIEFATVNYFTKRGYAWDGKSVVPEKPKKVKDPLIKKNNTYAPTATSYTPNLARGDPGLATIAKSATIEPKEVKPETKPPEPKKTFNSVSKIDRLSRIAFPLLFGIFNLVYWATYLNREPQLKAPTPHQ
- ASSAY_METHOD_TEXT: Selectivity interaction (GPCR panel (PDSP screen)) EUB0000707a GABRA1
READOUT: Ki (nM)
API: value field is a number in nM; no unit string.

What value of Ki has been recorded for this entry: CC1=C(C#N)C(c2ccc3c(c2)c(NC(=O)c2ccccc2C)nn3C)C(C#N)=C(C)N1 21
